Value source: patent US20200299380A1

measurementTarget: T1, MICA*001-BirA (human, UniProt Q29983 24-297)
T1 construct: also called MICA-BirA; MICA*01-BirA; not shown: BirA tag
T1 sequence: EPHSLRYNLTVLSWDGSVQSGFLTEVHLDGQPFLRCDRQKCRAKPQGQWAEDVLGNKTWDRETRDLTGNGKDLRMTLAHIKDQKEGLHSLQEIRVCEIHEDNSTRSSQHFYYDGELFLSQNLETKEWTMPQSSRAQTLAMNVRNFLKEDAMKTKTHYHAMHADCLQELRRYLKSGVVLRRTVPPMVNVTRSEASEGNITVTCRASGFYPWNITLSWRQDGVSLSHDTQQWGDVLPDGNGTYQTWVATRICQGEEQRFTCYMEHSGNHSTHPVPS
procedureText: SPR single cycle kinetics, monovalent mean KD at pH 7.4, antibody captured on Protein-G chip, MICA-BirA injected
experimentalEndpoint: pKd
Formally, pKd is defined as -log10 of the concentration c, with c in mol/L.

binder: CHG1-M-MIA-18E8 (antibody, human IgG1, V domains shown, the VH entry ends with ASTK) VH: DVQLQESGPDLVNPSQSLSLICTVTGYSITSDYSWHWIRQFPGNKLEWMGNIHYSGRINYNPSLRSRISITRDTSKNQFFLQLISVTTEDTATYYCATRRTFGNFEDYWGQGTTLTVSS VL: QIVLSQSPATLSVSPGEKVTMTCRSSSSVNYMHWYQQKPGSSPKPWIYATSTLASGVPARFSGSGSGTSYSLTISRVEAEDAATYYCQQWSSNPLTFGAGTKLELK
experimentalEndpoint: pKd
valueObserved: 7.27

binder: CHG1-M-MIA-10F3 (antibody, human IgG1, V domains shown, the VH entry ends with ASTK) VH: QVQLQQSAAELARPGASVKMSCKASGYTFTSYTMHWVKQRPGQGLEWIGYINPSSGYTEYNQKFKDKTTLTVDKSSTTSYMQLSSLTSDNSAVYYCARGGDWDVDWFVYWGQGTLVTVSA VL: QIVLTQSPAIMSASPGEKVTITCSASSSISYMHWFQQKPGTSPKLWIYSTSKLASGVPARFSGSGSGTSHSLTISRMEAEDAATYYCQHRSTYPFTFGSGTKLEIK
experimentalEndpoint: pKd
valueObserved: 8.08

binder: CHG1-M-MIA-6E4 (antibody, V domains shown, also called chimeric anti-MICA 6E4) VH: EVQLVESGGALVKPGGSLKLSCAASGFTFSYYAMSWVRQTPEKRLEWVATISRGGNYIYYTDSVKGRFTISRDNAKNTLYLQMTSLRSEDTAMFYCASISDYDGAWLAYWGQGTTLTVSS VL: DVLMTQTPLSLPVSLGDQASISCRSSQSIIHTNGNTYLEWYLQKPGQSPKLLIYKISNRFSGVPDRFSGSGSGTDFTLKISRVEAEDLGVYYCFQGSHVPWTFGGGTKLEIKR
experimentalEndpoint: pKd
valueObserved: 8.05

Turning now to a further record.
Look up pKd: CHG1-M-MIA-20C6 (antibody, V domains shown, also called chimeric anti-MICA 20C6) VH: QITLKESGPGILKPSQTLSLTCSFSGFSLSTSGMGVGWIRQPSGKGLEWLAHIWWDDDKYYNPSLKSQLTISKDTSRNQVFLRITSVDTADTATYYCARRTQGYFDYWGQGTTLTVSS VL: DIVMTQSPATLSVTPGDRVSLSCRASQSISDYLHWYQQKSHESPRLLIKYASQSISGIPSRFSGSGSGSDFTLSINSVEPEDVGVYYCQNGHSFPWTFGGGTKLEIKR
7.40
